- ASSAY TARGET: T1, human DDR2 ECD (human, UniProt Q16832 22-399)
- T1 construct: extracellular domain; also called DDR2 ECD protein
- T1 sequence (looked up): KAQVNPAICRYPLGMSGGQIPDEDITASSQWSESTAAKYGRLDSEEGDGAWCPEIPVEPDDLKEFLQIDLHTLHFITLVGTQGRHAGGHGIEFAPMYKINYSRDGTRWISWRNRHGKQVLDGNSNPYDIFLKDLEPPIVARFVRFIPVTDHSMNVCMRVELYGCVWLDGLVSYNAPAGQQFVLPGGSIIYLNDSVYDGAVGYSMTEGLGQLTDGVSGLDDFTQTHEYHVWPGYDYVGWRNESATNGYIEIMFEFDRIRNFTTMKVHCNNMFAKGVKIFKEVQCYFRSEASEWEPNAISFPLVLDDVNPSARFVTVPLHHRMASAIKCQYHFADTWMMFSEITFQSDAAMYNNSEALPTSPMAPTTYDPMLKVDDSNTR
- METHOD NOTES: ELISA, DDR2 ECD coated, antibody at 1 ug/ml, HRP anti-rabbit detection
PROPERTY LABEL: binding result

[
  {
    "BINDER": "DDR1-22 (antibody, V domains shown, Rabbit variable domains; Detected with anti-rabbit HRP antibody in the DDR2 ELISA; also called DDR1-22K/DDR1-22H) VH: QSVKESGGRLVTPGGSLTLTCTVSGFSLSDYAMIWVRQAPGKGLEYIGIINNGDIYYATWAKGRFTISETSSTTMGLNIISPTTEDTATYFCARPGYRTGIWLWGPGTLVTISS VL: ELVLTQTPSPVSAAVGGTVTINCQSSKNIYNNNALSWFQQKPGQPPKLLIYGASTLASGVPSRFKGSGSGTQFTLTISDVQCDDAATYYCAADYSDISDNNFGGGTEVVVK",
    "READOUT VALUE": "binds"
  },
  {
    "BINDER": "DDR1-15 (antibody, V domains shown, Rabbit variable domains; Detected with anti-rabbit HRP antibody in the DDR2 ELISA; also called DDR1-15K/DDR1-15H) VH: SQSLEESGGDLVKPGASLTLTCTASTFSFNSRYWTCWVRQAPGKGLEWIGCINNGDISTYYASWATGRFTISKSSSTTVTLHMTSLTAADTATYFCAKGGNLAGDCYGLWGPGTLVTISS VL: ELVMTQTPASVEVAVGGTVTIKCQASQTIYSSLAWYQQKPGQPPKLLIYKASTLASGVPSRFKGSGSGTQFTLTISGVQCDDAATYYCQQGSSISNVDKNAFGGGTEVEIK",
    "READOUT VALUE": "binds"
  }
]

Provenance of the data: patent US20230235078A1
